Assay: A quantitative high throughput screen for small molecules that induce DNA re-replication in SW480 colon adenocarcinoma cells. Note: nearly all actives have a fitted effect of over 55% in size.
Conditions: Hoechst DNA content imaging, 48 h; series mostly up to 46.1 µM
About 6,200 (1.8%) of roughly 340,000 compounds were called active. Not shown: some 10% with an inconclusive outcome. Calls come from the whole dose curve; as a rule, active = well fitted activation curve with a large enough effect; inconclusive = small, poorly fitted or top-dose-only effect; inactive = no such curve, though single readings can be large or run the other way. For the sample, actives were picked, then their nearest neighbours and some compounds at random.
// allowed return values: t = active, f = inactive

q: Which result was noted for this molecule in the test: COc1ccccc1N1N=C(c2cccs2)CC1c1ccccc1 (stereo unspecified)
a: t

q: // outcome(item) with item = `Cc1nn(-c2ccc(F)cc2)c(Cl)c1/C=C(/CCC(=O)O)c1nc2ccccc2s1`
a: f

q: What did the test return for `COc1cc(NC(=O)COC(=O)c2cc(S(=O)(=O)N3CCOCC3)ccc2F)cc(OC)c1` ?
a: f

q: Can you look up the reported call for `Cc1cc(NC(=O)CSc2nnc(-c3ccco3)n2N)no1` for me?
a: f

q: Field: outcome | Entry: `CCOC(=O)c1ccccc1OC(=O)Oc1ccccc1C(=O)OCC`
a: f

q: Per the records of this test, what outcome belongs to O=C1CC(c2ccccc2)C(=O)N2C(=O)CC(c3ccccc3)C(=O)N12 (stereo unspecified) ?
a: f

q: Could you kindly confirm the outcome this assay logged for `CCOC(=O)c1c(C)[nH]c(C)c1S(=O)(=O)N(C)CC(=O)Nc1ccccc1C` ?
a: f

q: Record request — test call for `Cc1c(NC(=O)c2cccnc2)c(=O)n(-c2ccccc2)n1C`
a: f

q: State the result this test recorded for `CN(C(=O)c1cccc(NC(=O)Cc2ccc([N+](=O)[O-])cc2)c1)C1CCC1` .
a: f

q: How was CCN(CC)C(=O)[C@H]1CC(CC(=O)NCc2ccco2)C(=O)N2CCc3c([nH]c4ccccc34)[C@]12C (stereo partly specified) classified in this test?
a: f

q: Please share the test call associated with COc1ccc(C2CC(c3cccs3)=NN2C(=O)CCC(=O)O)cc1OC (stereo unspecified) .
a: f

q: // param item: `O=C(Nc1cccc(-c2cscn2)c1)C1CCN(Cc2ccsc2)CC1` ; yields the recorded call
a: f

q: Look up the recorded call for `CCc1c(Nc2ccccc2C)nc(N)[nH]c1=O` in this test.
a: f

q: How did this test come out for COc1cccc(C2CC(c3cccs3)=NN2C(=O)CSC2=NCCS2)c1OC (stereo unspecified) ?
a: f

q: Test call, this molecule: `Cc1ccc(O)c(-c2cc(C(=O)Nc3c(C)n(C)n(-c4ccccc4)c3=O)[nH]n2)c1`
a: t

q: For `Cc1ccc(O)c(-c2cc(C(=O)NCc3ccccc3)[nH]n2)c1` , what call appears in the results of this test?
a: f

q: Answer briefly: the call reported for `CC(=O)c1cc(CN2CCC(C(=O)Nc3cccc(-c4cscn4)c3)CC2)cs1` in this assay.
a: f

q: // return assay outcome for `CCn1cc(CN2CCC(C(=O)Nc3cccc(-c4cccc(Cl)c4)c3)CC2)cn1`
a: t

q: Hi, sorry to bother you, what did the test record for `COc1cc(C(=O)N2CCN(S(=O)(=O)c3ccc(C(C)C)cc3)CC2)ccc1OCC(=O)N1CCOCC1` ?
a: f

q: What outcome does the record of this test show for `COc1ccc(/C=C(\NC(=O)c2ccc(OC)c(OC)c2)C(=O)NCCc2c[nH]c3ccccc23)cc1` ?
a: f

q: Record lookup: outcome of this test for `CCCC(=O)C1CCN(Cc2ccccc2)CC1` ?
a: f

Origin of the recorded values: PubChem BioAssay AID624297
